# tgt: Adenosine receptor A3 (Mus musculus, UniProt Q61618)
# Sequence (Q61618 whole entry): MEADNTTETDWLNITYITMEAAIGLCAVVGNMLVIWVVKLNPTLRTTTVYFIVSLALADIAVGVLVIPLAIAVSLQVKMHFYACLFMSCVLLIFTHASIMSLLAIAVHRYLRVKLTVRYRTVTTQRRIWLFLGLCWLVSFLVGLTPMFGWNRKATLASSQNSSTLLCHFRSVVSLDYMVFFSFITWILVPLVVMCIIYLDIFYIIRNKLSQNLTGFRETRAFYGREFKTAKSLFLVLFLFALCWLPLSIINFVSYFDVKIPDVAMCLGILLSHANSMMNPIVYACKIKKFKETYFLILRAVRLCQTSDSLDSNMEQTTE
pKi: −log10 of the molar value.
measurementLabel: pKi

                             compoundsmiles  measvalue
0  CNC(=O)[C@@]12C[C@@H]1[C@@H](n1cnc3c(NCCc4ccccc4)nc(C#Cc4ccc(Cl)s4)nc31)[C@H](O)[C@@H]2O       8.72
1  CNC(=O)[C@@]12C[C@@H]1[C@@H](n1cnc3c(NCCc4ccc(O)c(O)c4)nc(C#Cc4ccc(Br)s4)nc31)[C@H](O)[C@@H]2O       8.60
2  CNC(=O)[C@@]12C[C@@H]1[C@@H](n1cnc3c(NCCc4ccc(O)c(OC)c4)nc(C#Cc4ccc(Br)s4)nc31)[C@H](O)[C@@H]2O       8.88
3  CNC(=O)[C@@]12C[C@@H]1[C@@H](n1cnc3c(NCCc4ccc(O)c(OC)c4)nc(C#Cc4cccs4)nc31)[C@H](O)[C@@H]2O       8.90
4  CCOC(=O)[C@@]12C[C@@H]1[C@@H](n1cnc3c(NCCc4ccc(OC)c(O)c4)nc(C#Cc4ccc(Cl)s4)nc31)[C@H](O)[C@@H]2O       6.98
5  CNC(=O)[C@@]12C[C@@H]1[C@@H](n1cnc3c(NCCc4ccccc4)nc(I)nc31)[C@H](O)[C@@H]2O       8.77
6  CNC(=O)[C@@]12C[C@@H]1[C@@H](n1cnc3c(NCCc4ccc(OC)c(O)c4)nc(OCCC(C)C)nc31)[C@H](O)[C@@H]2O       8.30
7  CNC(=O)[C@@]12C[C@@H]1[C@@H](n1cnc3c(NCCc4ccc(OC)c(O)c4)nc(OCCCC4CCCCC4)nc31)[C@H](O)[C@@H]2O       8.19

The reported measurements were obtained from ChEMBL document CHEMBL5154659.
